Test system: Botrytis cinerea
EXPERIMENT NOTES: Antifungal activity against Botrytis cinerea at 500 ug/ml relative to control
Format: functional
Listed below: inhibition at 500 µg/mL values for each entry.
// return the numeric value with its unit appended

Take a look at these entries with their results.
compound=CCCCc1nnc(NC(=O)C2CC2)s1 assayed_target="Botrytis cinerea" result=26%
compound=O=C(Nc1nnc(-c2ccccc2F)s1)C1CC1 assayed_target="Botrytis cinerea" result=67.5%
compound=CCc1nnc(NC(=O)C2CC2)s1 assayed_target="Botrytis cinerea" result=32.1%
compound=Cc1cccc(-c2nnc(NC(=O)C3CC3)s2)c1 assayed_target="Botrytis cinerea" result=90.7%
compound=CC(C)c1nnc(NC(=O)C2CC2)s1 assayed_target="Botrytis cinerea" result=42%

inhibition at 500 µg/mL lookup needed for O=C(Nc1nnc(-c2ccccc2)s1)C1CC1 , thanks. 80.5%

Same question for O=C(Nc1nnc(C2CC2)s1)C1CC1 please. 66.6%

Same question for O=C(Nc1nnc(-c2ccc(Cl)cc2)s1)C1CC1 please. 13.5%

Source of measurements: ChEMBL document CHEMBL1152902
